- Test system: CAKI-1 renal
- EXPERIMENT_NOTES: NCI tumour cell line growth inhibition, 48 h; in the data active = GI50 below about 0.43 µM; inactive = the rest
Use one of these outcomes when replying: class 1 (active), class 0 (inactive)

Reference set (4 entries):
                                   compound    label
0  Cn1nc(N)c2cc([C@@H]3Nc4ccc5[nH]ncc5c4[C@H]4C5CCC(C5)[C@@H]34)ccc21 (stereo partly specified)  class 1
1     CCCCCCNC(=O)c1cc(NCc2cc(O)ccc2O)ccc1O  class 0
2                        Clc1nc2ccccc2nc1CI  class 0
3              O=C(Nc1ccc(Cl)cc1F)c1ccccc1O  class 0

Input line: # lookup: test call for CCN(CC)CCOc1ccc(-c2nc3cc(Cl)ccc3s2)cc1
Output line: class 0

Input line: # lookup: test call for CCC(C)n1ncn(-c2ccc(N3CCN(c4ccc(OCC5COC(Cn6cncn6)(c6ccc(Cl)cc6Cl)O5)cc4)CC3)cc2)c1=O (stereo unspecified)
Output line: class 0

Input line: # lookup: test call for COc1cnc2c(c1)C(=O)c1c-2n(CCCNC(C)C)c(=O)c2cc(Cl)ccc12
Output line: class 1

Input line: # lookup: test call for C=C1C(=O)O[C@@H]2C[C@@H]1CC/C(C)=C/CC/C(C)=C/CC[C@@]2(C)O
Output line: class 0

Input line: # lookup: test call for CC(C)CCN1c2nc(Nc3cc(F)c(O)c(F)c3)ncc2N(C)C(=O)C1C (stereo unspecified)
Output line: class 0

Input line: # lookup: test call for CCN(CC)c1ccc2c(c1)OC(N)=C(C#N)C2c1cc(OC)c2c(c1)OCO2 (stereo unspecified)
Output line: class 1

Input line: # lookup: test call for CCCCCCCCCCCCCC1=NC(C)(C)CN1C(C)C
Output line: class 0

====

- Tested on: KM12 colon
- EXPERIMENT_NOTES: NCI tumour cell line growth inhibition, 48 h
READOUT: TGI

Some solved entries appear below for comparison.
>>> df
                                   compound  readout  endpoint_result
0  COc1cc2nc(-c3ccc(Cl)cc3)cc(OCCCN3CCCCC3)c2cc1OC      TGI         > 100 µM
1   [N-]=[N+]=NC12CC3C4CC5CC3C(C1)C(C5)C4C2      TGI         > 100 µM

The compound listed as CCN(CC)CC1CCCCCCCCCCC1=O (stereo not drawn) shows TGI equal to > 100 µM

The compound listed as Cc1cc(CC(O)c2ccc(Cl)c(Cl)c2)nc(=O)[nH]1 (stereo not drawn) shows TGI equal to > 100 µM

The compound listed as CCCCCCCCCCCCCC1=NC(C)(C)CN1C(C)C shows TGI equal to 3.01 µM

The compound listed as CN(Cc1cnc2nc(N)nc(N)c2n1)c1ccc(C(=O)NC(CCC(=O)NCCC(P(=O)(O)O)P(=O)(O)O)C(=O)O)cc1 (stereo not drawn) shows TGI equal to > 100 µM

The compound listed as COc1ccc(N2C(=O)/C(=C(\C)c3cc4ccccc4oc3=O)N=C2c2cc([N+](=O)[O-])ccc2Cl)cc1 shows TGI equal to 87.4 µM

The compound listed as COc1ccc(C(=O)C(c2ccc(OC)cc2)C2(O)C(=O)Nc3ccc([N+](=O)[O-])cc32)cc1 (stereo not drawn) shows TGI equal to > 100 µM

The compound listed as Cn1cc(CO)c2c1C(=O)C=C(N1CC1)C2=O shows TGI equal to 0.0855 µM

====

- System: OVCAR-5 ovarian
- EXPERIMENT_NOTES: NCI tumour cell line growth inhibition, 48 h
READOUT: TGI

>>> print(df.to_string())
                                   molecule  measured_target  readout  endpoint_result
0  COc1cnc2c(c1)C(=O)c1c-2n(CCCNC(C)C)c(=O)c2cc(Cl)ccc12  OVCAR-5 ovarian      TGI           3.5 µM
1  O=Cc1cn(CCCCCCCCCCCCn2cc(C=O)c3ccccc32)c2ccccc12  OVCAR-5 ovarian      TGI         > 100 µM
2        CN(CC(=O)O)c1ncc2c(n1)-c1ccccc1SC2  OVCAR-5 ovarian      TGI         > 100 µM
3  O=C(NCC(=O)N1CCCC1C(=O)OC(=O)C1CCCN1C(=O)CNC(=O)OCc1ccccc1)OCc1ccccc1 (stereo not given)  OVCAR-5 ovarian      TGI          90.1 µM
4  CCOc1cc2c(OCc3ccccc3)cc3c4cc(OC)c(OC)cc4c[n+](C)c3c2cc1OC  OVCAR-5 ovarian      TGI            44 µM
5  N#Cc1c(NN)n(C2OC(CO)C(O)C2O)c2ncnc(N)c12 (stereo not given)  OVCAR-5 ovarian      TGI          14.4 µM
6  O=C(OC(CNc1cc(=O)n(Cc2ccccc2)c(=O)n1Cc1ccccc1)CN1CCCC1)c1ccccc1 (stereo not given)  OVCAR-5 ovarian      TGI         > 100 µM
7  COc1cc(C(Cc2ccccc2)NC(C)=O)oc(=O)c1 (stereo not given)  OVCAR-5 ovarian      TGI         > 100 µM

The molecule listed as O=c1[nH]c(=O)n(C2OC(CO)C(O)C2O)cc1NN=NCc1ccccc1 (stereo not given) shows TGI equal to > 100 µM

The molecule listed as OCC1OC(c2cccc3cc(O)c(O)cc23)CC1O (stereo not given) shows TGI equal to > 100 µM

====

- System: NCI-H522 lung
- EXPERIMENT_NOTES: NCI tumour cell line growth inhibition, 48 h
TGI by entry:
Your answer is read as µM, so omit the unit and give the number.

                                   molecule  readout  unit_of_measurement  endpoint_result
0  CCC[CH2][Sn]1([CH2]CCC)[O]N=C(c2ccccc2)C(c2ccccc2)[O]1 (stereo not given)      TGI                   µM             1.47
1              O=c1cnn(C/C=C/CBr)c(=O)[nH]1      TGI                   µM             22.9

The molecule listed as CCOc1cc2c(OCc3ccccc3)cc3c4cc(OC)c(OC)cc4c[n+](C)c3c2cc1OC shows TGI equal to 1.43

The molecule listed as OC[C@H]1C[C@](O)(c2ccc(Cl)cc2)[C@@H](c2ccc(Cl)cc2)O1 shows TGI equal to 52.9

The molecule listed as COc1ccc(C2COc3cc(OC(C)=O)c(OC(C)=O)cc3C2)cc1 (stereo not given) shows TGI equal to 6.3

====

TGI by entry:
- System: U251 CNS
- EXPERIMENT_NOTES: NCI tumour cell line growth inhibition, 48 h
Your answer is read as µM, so omit the unit and give the number.

Some solved entries appear below for comparison.
In [3]: df
Out[3]:
                                   compound  readout  endpoint_result
0       O=[N+]([O-])c1ccc(C2=Nn3cnnc3SC2)o1      TGI             30.1
1  C=C1CC[C@@H]2[C@](C)(COC(C)=O)[C@H](OC(C)=O)CC[C@@]2(C)[C@@H]1CC(Sc1ccccc1)C1=CCOC1=O (stereo not given in full)      TGI             2.96
2  CCN1CCN(C(c2ccc(C(F)(F)F)cc2)c2ccc3cccnc3c2O)CC1 (stereo not given)      TGI             11.4

Next compound, please.
TGI of NC(=O)NC1C(c2ccccc2)=C1c1ccccc1 , assay on U251 CNS, is 32.7

====

- System: HOP-92 NSCLC
- EXPERIMENT_NOTES: NCI tumour cell line growth inhibition, 48 h; in the data active = GI50 below about 0.43 µM; inactive = the rest
Use one of these outcomes when replying: active, inactive

Input line: # lookup: test call for O=C1/C(=C/c2ccc(Br)cc2)COc2ccc(O)c(O)c21
Output line: inactive

Input line: # lookup: test call for CC(C)c1ccc2c(c1)CC[C@@H]1[C@@](C)(C(=O)O)CCC[C@]21C
Output line: inactive

Input line: # lookup: test call for CCN(CC)c1ccc2c(c1)OC(N)=C(C#N)C2c1cc(OC)c2c(c1)OCO2 (stereo not given)
Output line: active

Input line: # lookup: test call for CCN(CC)CCOc1ccc(-c2nc3cc(Cl)ccc3s2)cc1
Output line: inactive

Input line: # lookup: test call for CC(C)=CCNc1ncnc2c1ncn2C1OC(CO)C(O)C1O (stereo not given)
Output line: inactive

====

- Test system: UO-31 renal
- EXPERIMENT_NOTES: NCI tumour cell line growth inhibition, 48 h
READOUT: TGI

Some solved entries appear below for comparison.
COMPOUND	MEASURED_TARGET	TGI
c1nc(OCC2CCCCC2)c2[nH]cnc2n1	UO-31 renal	> 100 µM
CC(C)(C)CC(C)(C)c1cc2c(O)c(c1)Cc1cc(C(C)(C)CC(C)(C)C)cc(c1O)Cc1cc(C(C)(C)CC(C)(C)C)cc(c1O)Cc1cc(C(C)(C)CC(C)(C)C)cc(c1O)C2	UO-31 renal	> 100 µM
CCCCc1c(N(C)C)c(OC(C)=O)c(-c2cn(C)c3ccccc23)oc1=O	UO-31 renal	53 µM
O=c1[nH]c(=O)n(C2OC(CO)C(O)C2O)cc1NN=NCc1ccccc1 (stereo not given)	UO-31 renal	> 100 µM
CC(C)c1ccccc1NC(=O)CCc1n[nH]c(=S)o1	UO-31 renal	> 100 µM

The compound listed as COc1cccc2c1OC(c1ccc(Cl)cc1)C([N+](=O)[O-])=C2 (stereo not given) shows TGI equal to 3.44 µM

The compound listed as O=C(O)c1ccc(N=C(C(=Nc2ccc(C(=O)O)cc2)c2ccccc2)c2ccccc2)cc1 shows TGI equal to > 100 µM

Numbers sourced from PubChem BioAssay (NCI).
